System: BAW (Spodoptera exigua)
Assay: Bioassays on Beet Armyworm (BAW), 128-well diet tray assay
Type: in vivo
Settings: Spodoptera exigua, 168 h, read-out: BAW Rating
measuredProperty: pest or weed control at 50 µg/cm2

[
  {
    "compound": "O=C(NNc1ccc(/C=C/C(c2cc(Cl)c(Cl)c(Cl)c2)C(F)(F)F)cc1)C1CC1 (stereo not shown)",
    "observedMeasurement": "50 to 100%"
  },
  {
    "compound": "FC(F)(F)C(/C=C/c1ccc(-n2cncn2)cc1)c1cc(Cl)cc(Cl)c1 (stereo not shown)",
    "observedMeasurement": "50 to 100%"
  },
  {
    "compound": "O=C(CNC(=O)c1ccc(/C=C\\C(c2cc(Cl)c(Cl)c(Cl)c2)C(F)(F)F)cc1Br)NCC(F)(F)F (stereo not shown)",
    "observedMeasurement": "50 to 100%"
  },
  {
    "compound": "FC(F)(F)C(/C=C/c1ccc(-n2cncn2)c(Cl)c1)c1cc(Cl)c(Cl)c(Cl)c1 (stereo not shown)",
    "observedMeasurement": "50 to 100%"
  }
]

* * *

Test system: CEW (Helicoverpa zea)
Assay: Bioassays on Corn Earworm (CEW), 128-well diet tray assay
Format: in vivo
Conditions: Helicoverpa zea, 168 h; percent mortality, second instar larvae, 50 μg/cm^2 on artificial diet, five to seven days, 25° C.; read-out: CEW Rating
Listed molecules paired with reported pest or weed control at 50 µg/cm2
measuredProperty: pest or weed control at 50 µg/cm2

[
  {
    "molecule": "CNc1cc(/C=C/C(c2cc(Cl)cc(Cl)c2)C(F)(F)F)ccc1-n1cncn1 (stereo not shown)",
    "system": "CEW (Helicoverpa zea)",
    "observedMeasurement": "50 to 100%"
  },
  {
    "molecule": "Cc1ncnn1-c1ccc(/C=C/C(c2cc(Cl)cc(Cl)c2)C(F)(F)F)cc1 (stereo not shown)",
    "system": "CEW (Helicoverpa zea)",
    "observedMeasurement": "50 to 100%"
  },
  {
    "molecule": "O=C(CC(F)(F)F)NC1CCCc2cc(/C=C/C(c3cc(Cl)c(Cl)c(Cl)c3)C(F)(F)F)ccc21 (stereo not shown)",
    "system": "CEW (Helicoverpa zea)",
    "observedMeasurement": "50 to 100%"
  },
  {
    "molecule": "Cc1cc(/C=C/C(c2cc(Cl)c(Cl)c(Cl)c2)C(F)(F)F)ccc1C(=O)NC(C)(C)c1ccccn1 (stereo not shown)",
    "system": "CEW (Helicoverpa zea)",
    "observedMeasurement": "50 to 100%"
  },
  {
    "molecule": "O=C(CC(F)(F)F)NC1CCc2cc(/C=C/C(c3cc(Cl)c(F)c(Cl)c3)C(F)(F)F)ccc21 (stereo not shown)",
    "system": "CEW (Helicoverpa zea)",
    "observedMeasurement": "50 to 100%"
  },
  {
    "molecule": "O=C(NCc1ccc(Cl)nc1)c1ccc(/C=C/C(c2cc(Cl)c(Cl)c(Cl)c2)C(F)(F)F)cc1Cl (stereo not shown)",
    "system": "CEW (Helicoverpa zea)",
    "observedMeasurement": "50 to 100%"
  },
  {
    "molecule": "O=C(CNC(=O)c1ccc(/C=C/C(c2ccc(F)c(Cl)c2)C(F)(F)F)cc1Br)NCC(F)(F)F (stereo not shown)",
    "system": "CEW (Helicoverpa zea)",
    "observedMeasurement": "50 to 100%"
  },
  {
    "molecule": "CCc1cc(/C=C/C(c2cc(Cl)c(F)c(Cl)c2)C(F)(F)F)ccc1C(=O)NCC(=O)NCC(F)(F)F (stereo not shown)",
    "system": "CEW (Helicoverpa zea)",
    "observedMeasurement": "50 to 100%"
  },
  {
    "molecule": "N#Cc1cc(/C=C/C(c2cc(Cl)c(Cl)c(Cl)c2)C(F)(F)F)ccc1-n1cnc([N+](=O)[O-])n1 (stereo not shown)",
    "system": "CEW (Helicoverpa zea)",
    "observedMeasurement": "50 to 100%"
  },
  {
    "molecule": "FC(F)(F)C(/C=C/c1ccc(-n2cncn2)cc1Cl)c1cc(Cl)c(Cl)c(Cl)c1 (stereo not shown)",
    "system": "CEW (Helicoverpa zea)",
    "observedMeasurement": "50 to 100%"
  },
  {
    "molecule": "O=C(NCc1ccc(/C=C/C(c2cc(Cl)c(Cl)c(Cl)c2)C(F)(F)F)cc1C(F)(F)F)c1cccnc1 (stereo not shown)",
    "system": "CEW (Helicoverpa zea)",
    "observedMeasurement": "50 to 100%"
  },
  {
    "molecule": "O=C(NC1CSC1)c1ccc(/C=C/C(c2cc(Cl)c(F)c(Cl)c2)C(F)(F)F)cc1F (stereo not shown)",
    "system": "CEW (Helicoverpa zea)",
    "observedMeasurement": "50 to 100%"
  },
  {
    "molecule": "CN1CCC(NC(=O)c2ccc(/C=C/C(c3cc(Cl)c(Cl)c(Cl)c3)C(F)(F)F)cc2Br)CC1 (stereo not shown)",
    "system": "CEW (Helicoverpa zea)",
    "observedMeasurement": "50 to 100%"
  },
  {
    "molecule": "CONC(=O)CNC(=O)c1ccc(/C=C/C(c2cc(Cl)c(Cl)c(Cl)c2)C(F)(F)F)cc1Br (stereo not shown)",
    "system": "CEW (Helicoverpa zea)",
    "observedMeasurement": "50 to 100%"
  },
  {
    "molecule": "FC(F)(F)c1cc(/C=C/C(c2cc(Cl)cc(Cl)c2)C(F)(F)F)ccc1-n1cncn1 (stereo not shown)",
    "system": "CEW (Helicoverpa zea)",
    "observedMeasurement": "50 to 100%"
  },
  {
    "molecule": "CCc1cc(/C=C/C(c2cc(Cl)c(F)c(Cl)c2)C(F)(F)F)ccc1C(=O)NCc1ccc(Cl)nc1 (stereo not shown)",
    "system": "CEW (Helicoverpa zea)",
    "observedMeasurement": "50 to 100%"
  }
]

* * *

Listed compounds paired with reported pest or weed control at 50 µg/cm2
Test system: BAW (Spodoptera exigua)
Experiment: Bioassays on Beet Armyworm (BAW), 128-well diet tray assay
Assay type: in vivo
Conditions: Spodoptera exigua, 168 h, read-out: BAW Rating
measuredProperty: pest or weed control at 50 µg/cm2

[
  {
    "compound": "FC(F)(F)C(/C=C/c1ccc(CNc2ccccn2)c(Cl)c1)c1cc(Cl)c(Cl)c(Cl)c1 (centres unmarked) [CC43]",
    "observedMeasurement": "50 to 100%"
  },
  {
    "compound": "FC(F)(F)C(/C=C/c1ccc(-n2cncn2)cc1Cl)c1cc(Cl)cc(Cl)c1 (centres unmarked) [DC67]",
    "observedMeasurement": "50 to 100%"
  },
  {
    "compound": "O=C(NOc1ccc(/C=C/C(c2cc(Cl)c(Cl)c(Cl)c2)C(F)(F)F)cc1)C1CC1 (centres unmarked) [CC52]",
    "observedMeasurement": "50 to 100%"
  },
  {
    "compound": "O=C(CNC(=S)c1ccc(/C=C/C(c2cc(Cl)c(Cl)c(Cl)c2)C(F)(F)F)cc1Br)NCC(F)(F)F (centres unmarked) [AC91]",
    "observedMeasurement": "50 to 100%"
  },
  {
    "compound": "CC(C)(C)OC(=O)CNC(=O)c1ccc(/C=C/C(c2cc(Cl)c(Cl)c(Cl)c2)C(F)(F)F)cc1Br (centres unmarked) [AC58]",
    "observedMeasurement": "50 to 100%"
  },
  {
    "compound": "O=C(CNC(=O)c1ccc(/C=C/C(c2cc(Cl)c(F)c(Cl)c2)C(F)(F)F)cc1Br)NCC(F)(F)F (centres unmarked) [AC79]",
    "observedMeasurement": "50 to 100%"
  },
  {
    "compound": "COC(/C=C/c1ccc(-n2cncn2)cc1)(c1cc(Cl)cc(Cl)c1)C(F)(F)F (centres unmarked) [DC70]",
    "observedMeasurement": "50 to 100%"
  },
  {
    "compound": "Cc1cc(/C=C/C(c2cc(Cl)c(F)c(Cl)c2)C(F)(F)F)ccc1C(=O)NCc1ccc(Cl)nc1 (centres unmarked) [AC38]",
    "observedMeasurement": "50 to 100%"
  }
]

* * *

Tested on: BAW (Spodoptera exigua)
Test: Bioassays on Beet Armyworm (BAW), 128-well diet tray assay
Assay type: in vivo
Conditions: Spodoptera exigua, 168 h, read-out: BAW Rating
Listed compounds paired with reported pest or weed control at 50 µg/cm2

[
  {
    "compound": "CCC(=O)NCc1ccc(/C=C/C(c2cc(Cl)cc(Cl)c2)C(F)(F)F)cc1 (stereo not shown)",
    "system": "BAW (Spodoptera exigua)",
    "pest or weed control at 50 µg/cm2": "50 to 100%"
  },
  {
    "compound": "O=C(NC1CSC1)c1ccc(/C=C/C(c2cc(Cl)c(Cl)c(Cl)c2)C(F)(F)F)cc1Br (stereo not shown)",
    "system": "BAW (Spodoptera exigua)",
    "pest or weed control at 50 µg/cm2": "50 to 100%"
  },
  {
    "compound": "O=C(CC(F)(F)F)NCc1ccc(/C=C/C(c2cc(Cl)c(Cl)c(Cl)c2)C(F)(F)F)cc1 (stereo not shown)",
    "system": "BAW (Spodoptera exigua)",
    "pest or weed control at 50 µg/cm2": "50 to 100%"
  },
  {
    "compound": "Cc1cc(/C=C/C(c2cc(Cl)cc(Cl)c2)C(F)(F)F)ccc1C(=O)NN(C)c1ccccc1F (stereo not shown)",
    "system": "BAW (Spodoptera exigua)",
    "pest or weed control at 50 µg/cm2": "50 to 100%"
  }
]
